Form field: abundance fitness (one value per entry).
B1: Histidine--tRNA ligase, cytoplasmic, residues 8 to 45; numbered along this chain, P12081 (parent)
chain: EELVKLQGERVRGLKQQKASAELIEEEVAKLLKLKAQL

Variants of: B1
procedure details: abundance fitness (aPCA) (normalised: wild type 0, dead -1); higher = more abundant; growth selection in yeast, the domain comes from the species named
test conditions: Homo sapiens
Lab note: jot the number down without any unit.

>>> assay_result("EELVKLQGERVRGLKQQKASAELIEEEVAKWLKLKAQL [L31W]")
-0.172
>>> assay_result("EELVKLQGERVRGLIQQKASAELIEEEVAKLLKLKAQL [K15I]")
0.017
>>> assay_result("EELNKLQGERVRGLKQQKASAELIEEEVAKLLKLKAQL [V4N]")
-0.139
>>> assay_result("EELVKLQGERVRGLKQQKASAELIEEEQAKLLKLKAQL [V28Q]")
0.366
>>> assay_result("EELVKLQVERVRGLKQQKASAELIEEEVAKLLKLKAQL [G8V]")
0.085
>>> assay_result("EELVKLQGERVRGLKQQKASAELIEEEVAKLLTLKAQL [K33T]")
-0.093

Okay, now this variant:
Problem: Annotate the variant ENLVKLQGERVRGLKQQKASAELIEEEVAKLLKLKAQL [E2N] with its measured abundance fitness.
Solution: -0.049

The origin of these recorded values is the Human Domainome abundance scans (Beltran et al. 2025).
